Origin of values: patent US20240209100A1

Recorded HEK-Blue IL-18: Abs405 (Emax) for the following binders
# TGT: T1, IL-18 receptor (IL-18Rα/IL-18Rβ) overexpressed on HEK-Blue IL-18 cells (Homo sapiens (Human), UniProt Q13478 19-541; O95256 20-599)
# T1 sequence 1: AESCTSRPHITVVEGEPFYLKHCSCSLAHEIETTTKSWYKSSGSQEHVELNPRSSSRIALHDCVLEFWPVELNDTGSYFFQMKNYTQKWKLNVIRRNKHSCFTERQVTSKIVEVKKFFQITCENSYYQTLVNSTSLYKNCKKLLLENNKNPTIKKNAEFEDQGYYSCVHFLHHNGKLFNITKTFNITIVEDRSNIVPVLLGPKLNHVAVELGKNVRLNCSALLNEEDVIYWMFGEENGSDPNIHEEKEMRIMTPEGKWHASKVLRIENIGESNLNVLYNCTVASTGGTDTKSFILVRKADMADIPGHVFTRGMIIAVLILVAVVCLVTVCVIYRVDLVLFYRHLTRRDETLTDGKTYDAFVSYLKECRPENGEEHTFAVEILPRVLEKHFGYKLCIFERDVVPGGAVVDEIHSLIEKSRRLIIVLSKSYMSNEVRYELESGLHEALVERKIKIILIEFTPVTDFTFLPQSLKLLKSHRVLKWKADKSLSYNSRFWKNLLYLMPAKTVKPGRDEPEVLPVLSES
# T1 sequence 2: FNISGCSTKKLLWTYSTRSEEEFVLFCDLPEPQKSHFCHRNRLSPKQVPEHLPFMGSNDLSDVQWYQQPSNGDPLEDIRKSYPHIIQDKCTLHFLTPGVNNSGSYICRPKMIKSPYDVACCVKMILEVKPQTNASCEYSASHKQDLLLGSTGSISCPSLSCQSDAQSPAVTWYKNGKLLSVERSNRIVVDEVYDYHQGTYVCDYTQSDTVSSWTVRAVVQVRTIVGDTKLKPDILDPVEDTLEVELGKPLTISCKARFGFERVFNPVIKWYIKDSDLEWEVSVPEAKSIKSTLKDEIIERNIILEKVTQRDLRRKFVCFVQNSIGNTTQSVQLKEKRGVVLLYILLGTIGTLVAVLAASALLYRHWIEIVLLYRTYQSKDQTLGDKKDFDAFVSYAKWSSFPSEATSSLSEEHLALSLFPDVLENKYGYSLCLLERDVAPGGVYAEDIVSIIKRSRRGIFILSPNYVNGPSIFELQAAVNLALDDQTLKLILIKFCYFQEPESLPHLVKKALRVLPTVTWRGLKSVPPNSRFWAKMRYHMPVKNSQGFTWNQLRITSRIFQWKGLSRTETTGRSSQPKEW
# ASSAY_DETAILS: cell-based or functional assay
QUANTITY_NAME: HEK-Blue IL-18: Abs405 (Emax)

{"BINDER": "DGL077 (bispecific antibody, V domains shown) V domain 1: QVQLQESGGGLVQPGGSLRLSCAASGSIFSTKGLGWYRQAPGEQRELVAGISSAGWIFYTQSVKGRFTMSRDNAKNTVYLQMNSLKPEDTAVYYCNSAQSGVPLRSWGQGTQVTVAS V domain 2: EVQLVESGGGVAQAGGSLRLSCAASITSFSLNTMGYYRQLPGKQRELVAVESSSGITNYADSVKGRFTISRDGAKNTVFLQMNSLTPEDTAVYYCGGKLFGRDFWGQGTQVTVSS", "QUANTITY_NAME": "HEK-Blue IL-18: Abs405 (Emax)", "RESULT": "0.6 Abs"}
{"BINDER": "DGL097 (bispecific antibody, V domains shown) V domain 1: QVQLVESGGGLVQAGGSLRLSCAASGRTFSSYDMGWFRQAPGKEREFVAALRWSGGSTSYADSVKGRFTISRDNAKNTVYLHMNSLKPEDTAVYYCAATLETDSGTYWADYWGQGTQVTVSS V domain 2: QVQLVESGGGLVQAGGSLRLSCVASGTFFQIHVMGWYRQAPGKQRELVAFIINNGGTRYADSVKGRFTISRDYAKNTVYLQMNSLKPEDTAVYYCNTEGTYRGRYSTDNWGQGTQVTVSS", "QUANTITY_NAME": "HEK-Blue IL-18: Abs405 (Emax)", "RESULT": "0.45 Abs"}
{"BINDER": "DGL090 (bispecific antibody, V domains shown) V domain 1: EVQLVESGGGLVQPGGSLRLSCAASGFFLDDYVLGWFRQAPGKPREGVSCISSRGRYLNYAETVKGRFTISRSNAKNTVYLQMNNLEPEDTAVYYCAAVRRVSEVCKLAEDDFASWGQGTQVTVSS V domain 2: QVQLQESGGGLVQAGGSLKLSCQASGLTFKRNTMGWFRQAPGKEREFVAHFLWTGGETDYADAVKGRFTISRDNAKNTVYLQMNSLKPEDTAVYFCAANYAGYRIDGYQYWGQGTQVTVSS", "QUANTITY_NAME": "HEK-Blue IL-18: Abs405 (Emax)", "RESULT": "0.26 Abs"}
{"BINDER": "DGL060 (bispecific antibody, V domains shown) V domain 1: EVQLVESGGGLVQPGGSLRLSCAASGSIFSINAMGWYRQAPGKQREVVATSTGGGMTNYADSVKGRFTISRDNAKNTVYLQMNSLKPEDTAVYYCNADKDPFFPGDYWGQGTQVTVSS V domain 2: QVQLQESGGGLVQPGGSLGLSCAASGIKISVNSMAWYRQAPGERREMVAVISSGGSAVYADSVKGRFTISRDNAKNMVYLQMNSLKPEDTAVYYCHPGSAAYRDYWGQGTQVTVSS", "QUANTITY_NAME": "HEK-Blue IL-18: Abs405 (Emax)", "RESULT": "0.6 Abs"}
